Readings of hERG Inhibition for the listed compounds
Measurement target: hERG (Homo sapiens, UniProt Q12809)
Sequence (Q12809 whole entry): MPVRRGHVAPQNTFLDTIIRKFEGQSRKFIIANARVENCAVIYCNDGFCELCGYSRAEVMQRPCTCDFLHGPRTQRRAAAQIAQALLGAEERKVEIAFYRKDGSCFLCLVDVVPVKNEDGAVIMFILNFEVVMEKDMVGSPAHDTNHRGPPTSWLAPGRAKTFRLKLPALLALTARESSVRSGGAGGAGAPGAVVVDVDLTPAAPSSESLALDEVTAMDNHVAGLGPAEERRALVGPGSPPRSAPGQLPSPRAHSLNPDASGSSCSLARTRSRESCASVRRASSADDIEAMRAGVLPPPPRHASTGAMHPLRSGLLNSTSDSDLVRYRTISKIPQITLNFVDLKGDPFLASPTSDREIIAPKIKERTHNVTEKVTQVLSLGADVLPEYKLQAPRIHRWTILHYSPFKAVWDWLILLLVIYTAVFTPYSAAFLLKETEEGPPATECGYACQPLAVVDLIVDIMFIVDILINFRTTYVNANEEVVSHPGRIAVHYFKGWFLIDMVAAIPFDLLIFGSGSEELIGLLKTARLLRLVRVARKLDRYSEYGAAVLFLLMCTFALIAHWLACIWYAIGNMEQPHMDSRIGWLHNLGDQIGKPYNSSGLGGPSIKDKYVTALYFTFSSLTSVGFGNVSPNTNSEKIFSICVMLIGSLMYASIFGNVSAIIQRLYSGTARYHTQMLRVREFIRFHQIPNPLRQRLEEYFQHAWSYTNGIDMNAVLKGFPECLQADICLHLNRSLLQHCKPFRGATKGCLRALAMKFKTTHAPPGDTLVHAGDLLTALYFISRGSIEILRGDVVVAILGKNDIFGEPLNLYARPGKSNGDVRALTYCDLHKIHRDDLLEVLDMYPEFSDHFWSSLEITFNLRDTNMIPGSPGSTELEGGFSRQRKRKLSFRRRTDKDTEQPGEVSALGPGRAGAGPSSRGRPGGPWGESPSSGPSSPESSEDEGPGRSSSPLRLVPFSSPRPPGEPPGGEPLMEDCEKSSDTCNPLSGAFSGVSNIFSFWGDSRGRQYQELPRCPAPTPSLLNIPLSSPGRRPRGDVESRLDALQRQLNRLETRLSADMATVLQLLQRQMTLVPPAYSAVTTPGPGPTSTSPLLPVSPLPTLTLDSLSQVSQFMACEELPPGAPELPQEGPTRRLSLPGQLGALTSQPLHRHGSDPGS
Test protocol: hERG Inhibition (Table 6E)
Type: cell-based
Parameters: expressed in transfected cells; unit not given here
Study conditions: column head 500
Measurement label: hERG Inhibition

Compound | Measurement target | Measurement label | Reported
Cc1ccc(F)cc1C[C@H](C)Nc1cc[nH]c(=O)c1-c1nc2cc3c(cc2[nH]1)C(=O)N(CCN1CCCC1)C3 [drawing 364] | hERG (Homo sapiens, UniProt Q12809) | hERG Inhibition | 38.5
Cc1ccc(F)cc1C[C@H](C)Nc1cc[nH]c(=O)c1-c1nc2cc3c(cc2[nH]1)CN(CCN(C)C)C3=O [drawing 365] | hERG (Homo sapiens, UniProt Q12809) | hERG Inhibition | 11.1
C[C@@H](Cc1cc(F)cc(F)c1F)Nc1cc[nH]c(=O)c1-c1nc2cc3c(cc2[nH]1)CN(CCN1CCCC1)C3=O [drawing 366] | hERG (Homo sapiens, UniProt Q12809) | hERG Inhibition | 7.10
C[C@@H](Cc1cc(F)cc(F)c1F)Nc1cc[nH]c(=O)c1-c1nc2cc3c(cc2[nH]1)CN(CCN(C)C)C3=O [drawing 367] | hERG (Homo sapiens, UniProt Q12809) | hERG Inhibition | 13.10

====

Measurement target: IGF1R (Homo sapiens, UniProt P08069)
Construct: 6×His- or GST-tagged kinase domain fragments of the corresponding RTKs expressed in baculovirus system; host or cells: baculovirus system
Sequence (P08069 999-1274 limits assumed): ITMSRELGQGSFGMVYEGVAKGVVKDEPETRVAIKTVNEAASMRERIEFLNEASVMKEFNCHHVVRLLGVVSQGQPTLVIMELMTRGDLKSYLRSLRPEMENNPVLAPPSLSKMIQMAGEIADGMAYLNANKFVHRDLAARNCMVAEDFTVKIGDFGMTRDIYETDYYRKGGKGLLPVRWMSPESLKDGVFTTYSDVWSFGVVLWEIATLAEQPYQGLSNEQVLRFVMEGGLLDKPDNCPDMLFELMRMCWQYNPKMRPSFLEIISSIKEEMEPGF
Test protocol: IGF1R kinase assay
Format: biochemical
Study conditions: Table 1; read-out: IGF1R IC50

Compound | IC50
Cc1ccc(F)cc1C[C@H](C)Nc1cc[nH]c(=O)c1-c1nc2c(C)c3c(cc2[nH]1)CN(CCN1CCCC1)C3=O [drawing 321] | 100 to 250 nM
Cc1ccc(N(C)C)cc1C[C@H](C)Nc1cc[nH]c(=O)c1-c1nc2cc3c(cc2[nH]1)CN(CCN1CCCC1)C3=O | > 1000 nM
C[C@@H](Cc1sccc1Cl)Nc1cc[nH]c(=O)c1-c1nc2cc3c(cc2[nH]1)C(=O)N(CCN1CCCC1)C3=O | 250 to 1000 nM
Cc1csc(CC(C)Nc2cc[nH]c(=O)c2-c2nc3cc4c(cc3[nH]2)C(=O)N(CCCN2CCCC2)C4)c1 (stereo not drawn) | 250 to 1000 nM
COc1ccc(F)cc1C[C@H](C)Nc1cc[nH]c(=O)c1-c1nc2cc3c(cc2[nH]1)CN(CCN(C)C)C3=O | 100 to 250 nM
O=C1NC(=O)c2cc3[nH]c(-c4c(NC[C@@H](O)c5cccc(Cl)c5)cc[nH]c4=O)nc3cc21 | 250 to 1000 nM
C[C@H](CN(C)C)N1C(=O)c2cc3nc(-c4c(N[C@@H](C)Cc5sccc5Cl)cc[nH]c4=O)[nH]c3cc2C1=O | > 1000 nM
COc1ccc(-c2ccc(CC(C)Nc3cc[nH]c(=O)c3-c3nc4cc5c(cc4[nH]3)C(=O)N(CCCN3CCCC3)C5)s2)cc1 (stereo not drawn) | > 1000 nM
Cc1ccccc1C[C@H](C)Nc1cc[nH]c(=O)c1-c1nc2cc3c(cc2[nH]1)CN(CCN1CCCC1)C3=O | 250 to 1000 nM
C[C@@H](Cc1ccccc1F)Nc1cc[nH]c(=O)c1-c1nc2cc3c(cc2[nH]1)CN(CCN1CCCC1)C3=O | 250 to 1000 nM
CC(Cc1ccccc1F)Nc1cc[nH]c(=O)c1-c1nc2cc3c(cc2[nH]1)C(=O)N(CCCN1CCCC1)C3 (stereo not drawn) | 100 to 250 nM
C[C@H](CN1C(=O)c2cc3nc(-c4c(N[C@@H](C)Cc5sccc5Cl)cc[nH]c4=O)[nH]c3cc2C1=O)N(C)C | > 1000 nM
C[C@@H](Cc1ccco1)Nc1cc[nH]c(=O)c1-c1nc2cc3c(cc2[nH]1)C(=O)N(CCN1CCCC1)C3=O | > 1000 nM
C[C@@H](Cc1cccs1)Nc1cc[nH]c(=O)c1-c1nc2cc3c(cc2[nH]1)C(=O)N(CCN1CCCC1)C3=O | 250 to 1000 nM
Cc1c(C[C@H](C)Nc2cc[nH]c(=O)c2-c2nc3cc4c(cc3[nH]2)CN(CCN(C)C)C4=O)ccc(F)c1F | > 1000 nM
COc1ccc(F)cc1C[C@H](C)Nc1cc[nH]c(=O)c1-c1nc2cc3c(cc2[nH]1)CN(CCN1CCCC1)C3=O | 100 to 250 nM
C[C@@H](Cc1sccc1Cl)Nc1cc[nH]c(=O)c1-c1nc2cc3c(cc2[nH]1)C(=O)N(C[C@H](C)N(C)C)C3=O | > 1000 nM
CCN1CCC[C@@H]1CN1Cc2cc3nc(-c4c(N[C@@H](C)Cc5sccc5C)cc[nH]c4=O)[nH]c3cc2C1=O | 250 to 1000 nM
CCc1ccc(CC(C)Nc2cc[nH]c(=O)c2-c2nc3cc4c(cc3[nH]2)C(=O)N(CCCN2CCCC2)C4)s1 (stereo not drawn) | > 1000 nM
C[C@H](CN(C)C)N1Cc2cc3nc(-c4c(N[C@@H](C)Cc5sccc5Cl)cc[nH]c4=O)[nH]c3cc2C1=O | 100 to 250 nM
C[C@@H](Cc1ccccc1Cl)Nc1cc[nH]c(=O)c1-c1nc2cc3c(cc2[nH]1)CN(CCN1CCCC1)C3=O | > 1000 nM
Cc1cc(CC(C)Nc2cc[nH]c(=O)c2-c2nc3cc4c(cc3[nH]2)C(=O)N(CCCN2CCCC2)C4)sc1C (stereo not drawn) | 250 to 1000 nM
C[C@@H](Cc1sccc1C(F)(F)F)Nc1cc[nH]c(=O)c1-c1nc2cc3c(cc2[nH]1)CN(CCN1CCCC1)C3=O | 250 to 1000 nM
C[C@@H](Cc1cc(F)cc(F)c1F)Nc1cc[nH]c(=O)c1-c1nc2cc3c(cc2[nH]1)CN(CCN1CCOCC1)C3=O | 250 to 1000 nM
Cc1noc(C)c1CC(C)Nc1cc[nH]c(=O)c1-c1nc2cc3c(cc2[nH]1)C(=O)N(CCCN1CCCC1)C3 (stereo not drawn) | > 1000 nM
CCc1ccccc1C[C@H](C)Nc1cc[nH]c(=O)c1-c1nc2cc3c(cc2[nH]1)CN(CCN1CCCC1)C3=O | > 1000 nM
C[C@@H](Cc1sccc1Cl)Nc1cc[nH]c(=O)c1-c1nc2cc3c(cc2[nH]1)CN(CCN1CCCC1)C3=O | 100 to 250 nM
Cc1ccsc1C[C@H](C)Nc1cc[nH]c(=O)c1-c1nc2cc3c(cc2[nH]1)CN(CCN1CCS(=O)(=O)CC1)C3=O | 250 to 1000 nM
C[C@H](Cc1cccs1)Nc1cc[nH]c(=O)c1-c1nc2cc3c(cc2[nH]1)C(=O)N(CCCN1CCCC1)C3 | > 1000 nM
O=C1c2cc3nc(-c4c(NC[C@@H](O)c5cccc(Cl)c5)cc[nH]c4=O)[nH]c3cc2C(=O)N1CCN1CCCC1 | 10 to 100 nM

====

Test protocol: Liver microsome stability, Rat LM-P1
Assay type: in vitro ADME
Study conditions: liver microsomes, read-out: Rat LM-P1 CL
Measurement label: microsomal CLint (µL/min/mg)

Compound | Unit tag | Reported
Cc1ccc(F)cc1C[C@H](C)Nc1cc[nH]c(=O)c1-c1nc2cc3c(cc2[nH]1)C(=O)N(CCN1CCCC1)C3 [drawing 368] | µL/min/mg | 79.6
C[C@@H](Cc1cc(F)cc(F)c1F)Nc1cc[nH]c(=O)c1-c1nc2cc3c(cc2[nH]1)CN(CCN1CCCC1)C3=O [drawing 369] | µL/min/mg | 138
C[C@@H](Cc1c(F)c(F)cc(F)c1F)Nc1cc[nH]c(=O)c1-c1nc2cc3c(cc2[nH]1)CN(CCN1CCCC1)C3=O [drawing 370] | µL/min/mg | 159

====

Test protocol: Pharmacokinetics study in CD-1 mice (IV, PO)
Format: in vivo
Study conditions: CD-1, mouse, plasma, iv, 1 mg/kg, IV 1 mg/kg, individual animals A-D

Smiles code | AUC(0-inf)
Cc1ccc(F)cc1C[C@H](C)Nc1cc[nH]c(=O)c1-c1nc2cc3c(cc2[nH]1)C(=O)N(CCN1CCCC1)C3 | 102 ng·h/mL

====

Measurement target: hERG (Homo sapiens, UniProt Q12809)
Test protocol: hERG Inhibition (Table 6E)
Type: cell-based
Set-up: expressed in transfected cells; unit not given here
Study conditions: 25

Compound | hERG Inhibition
Cc1ccc(F)cc1C[C@H](C)Nc1cc[nH]c(=O)c1-c1nc2cc3c(cc2[nH]1)CN(CCN(C)C)C3=O [drawing 365] | 5.8
C[C@@H](Cc1cc(F)cc(F)c1F)Nc1cc[nH]c(=O)c1-c1nc2cc3c(cc2[nH]1)CN(CCN(C)C)C3=O [drawing 367] | 6.60
Cc1ccc(F)cc1C[C@H](C)Nc1cc[nH]c(=O)c1-c1nc2cc3c(cc2[nH]1)C(=O)N(CCN1CCCC1)C3 [drawing 364] | 22.5
C[C@@H](Cc1cc(F)cc(F)c1F)Nc1cc[nH]c(=O)c1-c1nc2cc3c(cc2[nH]1)CN(CCN1CCCC1)C3=O [drawing 366] | 6.00
